molecular target: human acetylcholinesterase (hAChE) (Homo sapiens, UniProt P22303); construct: purchased Sigma Aldrich; host or cells: HEK 93 cells (so in the source); assay: Kinetic determinations of reversible hAChE inhibition (Ellman assay); type: biochemical
Sequence (P22303 32-614): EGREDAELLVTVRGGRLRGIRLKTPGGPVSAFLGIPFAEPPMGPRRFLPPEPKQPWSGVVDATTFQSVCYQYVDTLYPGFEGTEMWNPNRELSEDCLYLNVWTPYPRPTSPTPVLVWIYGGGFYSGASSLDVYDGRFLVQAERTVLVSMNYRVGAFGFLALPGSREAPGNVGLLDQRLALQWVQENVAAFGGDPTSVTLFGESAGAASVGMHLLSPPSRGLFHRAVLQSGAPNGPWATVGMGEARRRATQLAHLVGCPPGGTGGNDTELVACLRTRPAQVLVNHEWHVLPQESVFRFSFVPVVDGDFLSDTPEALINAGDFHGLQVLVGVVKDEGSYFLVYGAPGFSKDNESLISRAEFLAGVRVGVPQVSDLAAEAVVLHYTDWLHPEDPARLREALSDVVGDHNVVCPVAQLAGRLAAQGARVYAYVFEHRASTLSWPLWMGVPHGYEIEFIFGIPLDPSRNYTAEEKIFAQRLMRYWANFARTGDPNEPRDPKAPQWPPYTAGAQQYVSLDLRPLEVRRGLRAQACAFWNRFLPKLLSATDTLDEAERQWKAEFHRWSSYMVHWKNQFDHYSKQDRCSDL
ATTRIBUTE_MEASURED: Mode of Inhibition

As a guide, the following entries are already answered.
CC(=O)Oc1cccc(/C=C2N=C(/C=C/c3ccccc3)OC\2=O)c1O
Competitive
COc1ccc(/C=C2N=C(/C=C/c3ccccc3)OC\2=O)cc1
Competitive
O=C1OC(/C=C/c2ccccc2)=NC/1=C\c1ccccc1
Competitive
Cc1ccc(/C=C2N=C(/C=C/c3ccccc3)OC\2=O)cc1
Competitive

Tested on human acetylcholinesterase (hAChE) (Homo sapiens, UniProt P22303): O=C1OC(/C=C/c2ccccc2)=NC/1=C\c1ccc(Cl)cc1 . Observed Mode of Inhibition: Competitive
